meta.source: ChEMBL document CHEMBL3988442

Entries annotated with measured Percent Effect
Molecular target: Histidine--tRNA ligase (Trypanosoma cruzi (strain CL Brener))
Sequence (whole entry): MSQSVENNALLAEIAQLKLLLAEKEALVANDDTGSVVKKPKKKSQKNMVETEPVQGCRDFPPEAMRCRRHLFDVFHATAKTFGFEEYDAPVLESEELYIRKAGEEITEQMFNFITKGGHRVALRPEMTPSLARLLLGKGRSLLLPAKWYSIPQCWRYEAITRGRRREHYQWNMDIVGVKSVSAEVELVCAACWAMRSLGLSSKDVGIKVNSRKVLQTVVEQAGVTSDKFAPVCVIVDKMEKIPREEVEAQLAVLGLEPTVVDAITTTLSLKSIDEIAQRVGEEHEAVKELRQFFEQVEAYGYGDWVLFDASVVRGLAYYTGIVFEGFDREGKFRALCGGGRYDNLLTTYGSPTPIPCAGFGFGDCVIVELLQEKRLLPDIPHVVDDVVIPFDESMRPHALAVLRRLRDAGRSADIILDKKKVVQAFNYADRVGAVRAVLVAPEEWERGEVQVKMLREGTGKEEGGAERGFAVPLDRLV
Assay: Trypanosoma cruzi histidyl tRNA synthetase (Tc-HisRS)
Type: functional
Set-up: scale not given: direction of the effect not stated beside the values
Details: 30 µM
Screen size: about 69,000 compounds; about 30 (0.04%) showed an effect of 50% or more. Only a selection was taken, and strong results are over-represented in it overall.
// note: answer is a bare numeric in %

Some solved cases for reference:
| compound | Percent Effect / % |
| --- | --- |
| Cc1ccc(C(=O)N2C[C@H]3CCC[C@@]3(COCC3CCOCC3)C2)o1 | 14.3 |
| CO[C@H]1[C@@H]2CC[C@H]1CN(c1nc(C)nc3ccsc13)C2 | -6.52 |
| O=C1CC[C@H]2[C@H](CCN2C(=O)C2CCCO2)N1Cc1ccncc1 (some centres undefined) | -3.83 |
| CCC1=N[C@@]2(CC[C@@H]3CN(Cc4ccc(C)cc4)C[C@@H]32)C(=O)N1C | 7.41 |
| Cc1ccc(C(=O)N2CCO[C@H]3[C@@H](OCc4ccccn4)CC[C@@H]32)o1 | 5.43 |
| COc1cccc(C2CC(=O)Nc3nc(N4CCCCC4)sc32)c1OC (centres undefined) | 74.5 |
| O=C(C1CCC1)N1CC[C@@H]2CN(Cc3cccnc3)S(=O)(=O)[C@@H]2CC1 | 11.6 |
| CNc1nc2c(s1)C(c1ccccc1Cl)CC(=O)N2 (centres undefined) | 17.4 |
| C1CC(CN2C[C@@H]3C[C@@H](c4nnc(C5CC5)o4)O[C@@H]3C2)C1 | 0 |
| Cc1nc(CO[C@H]2CN(C(=O)c3cccnc3)[C@@H]3COC[C@H]23)cs1 | -1.03 |

// moving on: another record for Percent Effect
Percent Effect in this record for "COc1ccc(CN2C[C@@H]3CC[C@H](C2)N(Cc2snnc2C)C3)cc1" : 11.4

* * *

Target: Histidine--tRNA ligase (Trypanosoma cruzi (strain CL Brener))
Assay: Trypanosoma cruzi histidyl tRNA synthetase (Tc-HisRS)
Type: functional
Parameters: scale not given: direction of the effect not stated beside the values
Details: 30 µM
About 30 (0.04%) of roughly 69,000 compounds showed an effect of 50% or more. Only a selection was taken, and strong results are over-represented in it overall.
experimentalEndpoint: Percent Effect (%)
// note: answer is a bare numeric in %

Some solved cases for reference:
| compound | system | measurementUnit | Percent Effect |
| --- | --- | --- | --- |
| Nc1nc2c(s1)C(c1c(F)cccc1Cl)CC(=O)N2 (configuration not stated) | Histidine--tRNA ligase (Trypanosoma cruzi (strain CL Brener)) | % | -3.73 |
| O=C(c1ccsc1)N1C[C@@H]2CCN(c3cccnc3)C[C@@H]2C1 | Histidine--tRNA ligase (Trypanosoma cruzi (strain CL Brener)) | % | -1.97 |
| CC(C)Oc1ccccc1C1CC(=O)Nc2nc(N3CCOCC3)sc21 (configuration not stated) | Histidine--tRNA ligase (Trypanosoma cruzi (strain CL Brener)) | % | 1.24 |
| O=C(O)c1cncc(Cc2ccccc2F)c1 | Histidine--tRNA ligase (Trypanosoma cruzi (strain CL Brener)) | % | -0.376 |
| CN(CC1CC1)c1ccc2ccc(C(=O)NC3CCCCC3)cn12 | Histidine--tRNA ligase (Trypanosoma cruzi (strain CL Brener)) | % | 42.8 |
| NC1CCN(C2CCN(c3ccc(-c4ccco4)cc3)CC2)CC1 | Histidine--tRNA ligase (Trypanosoma cruzi (strain CL Brener)) | % | 43.5 |
| CS(=O)(=O)N1CCN(c2ccc3ccc(C(=O)NC4CC4)cn23)CC1 | Histidine--tRNA ligase (Trypanosoma cruzi (strain CL Brener)) | % | 52.4 |
| CCN(CC)c1ccc2ccc(C(=O)NC3CC3)cn12 | Histidine--tRNA ligase (Trypanosoma cruzi (strain CL Brener)) | % | 36.8 |

// moving on: another record for Percent Effect
Percent Effect in this record for "CNC1CCN(C2CCN(c3ccc(-c4ccco4)cc3)CC2)CC1" : 35.3
